Cited source: patent US20080267974A1

System Under Test: tumor necrosis factor alpha (TNFα) (human, UniProt P01375 77-233)
Sequence (P01375 77-233 limits assumed): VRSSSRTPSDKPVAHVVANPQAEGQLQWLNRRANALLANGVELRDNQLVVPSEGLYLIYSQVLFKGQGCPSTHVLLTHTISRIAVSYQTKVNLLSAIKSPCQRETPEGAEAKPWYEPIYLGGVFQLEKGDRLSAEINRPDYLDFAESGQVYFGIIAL
Assay Procedure: affinity by IC50 ELISA (so named in paragraph 380)
Parameter Measured: Affinity (nM)
Provide only the numeric value, understood in nM.

Prompt line: Given the entry MAb 805 (antibody, V domains shown, also called 156 H7; H1329/L250) VH: EVQLVESGGGLIQPGGSLRLSCAVSGLNVSRDYMSWVRQAPGKGLEWISVIYRGGATMYADSVKGRFTISRDTSKNTVFLQMSRLKVADTAVYYCARNYYGSTYDYWGQGTLVTVSS VL: EIVLTQSPVTLSVPPGERASLSCRASQNIYTAVAWYQQKPGQAPRLLIYGASTRATGIPARFSGGGSGTDYTLTISSLESEDFAVYHCQQYHSWPLTFGGGTKLEIK , report its measured Affinity.
Response line: 0.6

Prompt line: Given the entry MAb 698 (antibody, V domains shown, also called 131 E11; H1272/L250) VH: EVQLLESGGGLIQPGGSLRLSCAASGFTVGNNYMSWVRQAPGKGLEWVSVIYSAGSTYYADSVKGRFIISRDNSKDTVYLQMNSLRVDDTAVYYCARNYYGSTYDYWGQGTLVTVSS VL: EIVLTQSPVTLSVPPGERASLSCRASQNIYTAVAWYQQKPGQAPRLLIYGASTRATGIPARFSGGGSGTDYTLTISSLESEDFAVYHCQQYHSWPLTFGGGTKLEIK , report its measured Affinity.
Response line: 2.3
